- Test system: NCI-H23 lung
- assay-protocol: NCI tumour cell line growth inhibition, 48 h
measured-quantity: log10 of TGI (log10 of the value in µM)
log10 TGI, µM

Cc1cc(=O)oc2cc(OC(=O)Nc3ccc(Cl)c(Cl)c3)ccc12	1.72

## Task Looking for the measured log10 of TGI of O=S(=O)(NC(=S)Nc1ccccc1)c1ccc(N2N=C3c4ccccc4CC3C2c2cccs2)cc1 (stereo unspecified) , can you help?
## Result 1.60

## Task Reported log10 of TGI, compound CO[C@H]1[C@H](O)[C@H](O[C@H]2CC[C@@]3(C)[C@H](CC[C@@H]4[C@@H]3CC[C@]3(C)[C@@H](C5=CC(=O)OC5)CC[C@]43O)C2)O[C@@H](C)[C@@H]1O : ____
## Result -2.90

## Task Please look up its log10 of TGI: COc1cc2c3c(n(CCCN)c(=O)c2cc1OC)-c1ccc(F)cc1C3=O
## Result 0.97

## Task Entry COc1cc2c3c(n(CCCN4CCN(C)CC4)c(=O)c2cc1OC)-c1cc2c(cc1C3=O)OCO2 has what log10 of TGI?
## Result 1.38

## Task # query: log10 of TGI of entry COC(=O)[C@]12CC[C@@H](C)[C@H](C)[C@@H]1C1=CC[C@@H]3[C@@]4(C)C(C=O)=C[C@@](C)(COC(C)=O)[C@@H]4[C@H](O)C[C@@]3(C)[C@]1(C)CC2
## Result 0.87

====

- System: HOP-62 NSCLC
- assay-protocol: NCI tumour cell line growth inhibition, 48 h
measured-quantity: GI50

COc1cc2c3c(n(CCCN)c(=O)c2cc1OC)-c1ccc(F)cc1C3=O	0.544 µM
COc1cc2c3c(n(CCN)c(=O)c2cc1OC)-c1cc2c(cc1C3=O)OCO2	0.122 µM
NC1=NC(c2ccccc2)N=C(Nc2ccccc2)N1 (stereo unspecified)	> 100 µM
CCC(C(=O)[O-])C(=O)[O-].CCC(C(=O)[O-])C(=O)[O-].N.N.NCCCCCN.[Pt+4].[Pt+4]	> 100 µM
O=C1/C(=C/c2ccccc2)SC(=Nc2ccccc2)N1Nc1ccccc1	23.4 µM

# evaluate next
## Task Quick one: GI50 of N#CC1C(=N)Cc2ccccc2-c2ccccc21 (stereo unspecified) ?
## Result 4.59 µM

====

- System: SNB-75 CNS
- assay-protocol: NCI tumour cell line growth inhibition, 48 h
measured-quantity: TGI

COc1cc(/C=C/C(=O)c2cc(F)c(Cl)cc2Cl)cc(OC)c1OC	> 100 µM

## Task Name the reported TGI value associated with the compound OC(c1cccs1)c1cc2ccccc2s1 (centres undefined)
## Result > 10 µM

## Task Which measured TGI value corresponds to O=C(O)c1cc2ccccc2c(N=Nc2c([N+](=O)[O-])cc([N+](=O)[O-])cc2S(=O)(=O)O)c1O ?
## Result > 100 µM

## Task Endpoint output: TGI of O=C([O-])c1ccc2c(c1)-c1nc-2nc2[n-]c(nc3nc(nc4[n-]c(n1)c1ccc(C(=O)[O-])cc41)-c1cc(C(=O)[O-])ccc1-3)c1ccc(C(=O)[O-])cc21.[Fe+2] . Value?
## Result > 50 µM

====

- Tested on: UO-31 renal
- assay-protocol: NCI tumour cell line growth inhibition, 48 h
Reported TGI is given for each of the following molecules.

CCOP(=O)(CC(=O)C1=C(O)C(CCCNC(=O)OC(C)(C)C)N(Cc2ccc(OC)c(OC)c2)C1=O)OCC (centres undefined)	> 100 µM
CCC(=O)OC1CCn2c1nc1c2C(=O)C(C)=C(N2CC2)C1=O (centres undefined)	0.136 µM
CC1(C)OCC2OC3([C@H](O)CCO)OC(C)(C)OC3C2O1 (some centres undefined)	> 100 µM
O=[N+]([O-])CC(SCc1ccccc1)c1ccc2c(c1)OCO2 (centres undefined)	22.2 µM

## Task So what does the record say about TGI for NC(=O)c1csc(C2C=CC(CO)O2)n1 (centres undefined) ?
## Result > 100 µM

## Task What does the record list as TGI for CC[N+](CC)=c1ccc2nc3c(cc(NCc4ccccc4)c4ccccc43)oc-2c1 ?
## Result 1.15 µM

## Task # lookup: TGI of Cc1ccc(S(=O)(=O)CNC(=S)CCCC(=S)NCS(=O)(=O)c2ccc(C)cc2)cc1
## Result > 100 µM

====

As shown below, each of these molecules has a reported TGI value.
- Tested on: BT-549 breast
- assay-protocol: NCI tumour cell line growth inhibition, 48 h

Please review the entries below; each comes with its answer.
COC(=O)c1ccc2n1C1CC3CC(CC2C3)C1	> 100 µM
O=C(O)c1c(-c2c3ccc(=O)cc-3oc3cc(O)ccc23)cc2ccccc2c1-c1ccccc1	> 100 µM

## Task Endpoint output: TGI of Cc1cc(O)c2c(c1)C(=O)c1cc(O)cc(O)c1C2=O . Value?
## Result 86 µM

## Task Please give the measured TGI for this molecule: CCN1/C(=C/c2ccc3ccccc3[n+]2CC)C=Cc2ccccc21
## Result 24 µM

## Task Request the reported TGI associated with Nc1nc2ccc([C@@H]3Nc4ccc5[nH]ncc5c4[C@H]4[C@H]5CCC(C5)[C@H]43)cc2s1
## Result 5.25 µM

====

TGI values by entry
- Test system: HCT-15 colon
- assay-protocol: NCI tumour cell line growth inhibition, 48 h

NC(=O)c1n[nH]n(-c2ccccc2)c1=O	> 100 µM

## Task May I ask what TGI has been recorded for O=C(CCCCCCCCC(=O)NN1C(=O)/C(=C\c2ccc(O)c(O)c2)SC1c1c(O)ccc2ccccc12)NN1C(=O)C(=Cc2ccc(O)c(O)c2)SC1c1c(O)ccc2ccccc12 (stereo unspecified) ?
## Result > 100 µM

## Task Which TGI reading was recorded for the compound O=c1nc2n(cc1/C=C\Br)C1CC(O)C(CO2)O1 (stereo unspecified) ?
## Result > 100 µM

## Task Which value of TGI has been reported for Cc1cc(C)c2c(n1)S(=O)(=O)N(CCCN1CCN(c3cccc(C(F)(F)F)c3)CC1)/C(=C(\O)c1ccccc1)C2=O in the records?
## Result 67 µM

## Task So what's the measured TGI for this one? Cn1c(N2CCCC2)c(C=O)c(=O)n(C)c1=O
## Result > 100 µM

## Task Record request: TGI value, item CS(=O)(=O)N1CCN(Cc2cc3nc(-c4cccc5[nH]ncc45)nc(N4CCOCC4)c3s2)CC1 (tested in a mixture with another compound)
## Result > 100 µM

====

- Test system: HS 578T breast
- assay-protocol: NCI tumour cell line growth inhibition, 48 h
Here, each record is paired with measured TGI data.
Number only, in µM; omit the unit.

Consider the following illustrative entries.
FC(F)(F)c1ccc2c(c1)nc(Cc1ccccc1)n2C[C@@H]1CCCN2CCCCC12 (some centres not stated)	57
CCOC(=O)c1c(C)n(Cc2ccccc2)c2c1cc(O)c1[nH]c3c(c12)CCCC3	7.97
C[n+]1c2ccccc2c(CNC(CCC(N)=O)C(=O)O)c2ccccc21 (configuration not stated)	21.8
CC1=C(C2=C(C)C(=O)C(=O)c3cc(C)ccc32)c2ccc(C)cc2C(=O)C1=O	0.863

## Task What does the data say about its TGI? Entry: O=C1Oc2ccccc2C(=O)/C1=C/N1C(=O)/C(=C/c2ccc([N+](=O)[O-])cc2)SC1=S
## Result 34.3

====

- Test system: HT29 colon
- assay-protocol: NCI tumour cell line growth inhibition, 48 h
Listing of recorded TGI by entry.

Nc1ccc(C#Cc2cncnc2Nc2ccc(OCc3cccc(F)c3)c(Cl)c2)cc1	> 25 µM
CCOP(=O)(CC(=O)C1=C(O)C(CCCNC(=O)OC(C)(C)C)N(Cc2ccc(OC)c(OC)c2)C1=O)OCC (stereo not drawn)	> 100 µM

# ---- query compound ----
## Task Request: TGI, test system HT29 colon, entry COC1=CC(=O)C(O)=C(C[C@@]2(C)[C@@H]3CCC[C@H](COC(=O)CCCCCNC(=O)OC(C)(C)C)[C@@]3(C)CC[C@@H]2C)C1=O
## Result > 10 µM

====

Below, each entry is listed alongside its reported TGI.
- System: MALME-3M melanoma
- assay-protocol: NCI tumour cell line growth inhibition, 48 h

Example results:
Cc1ccc(NS(=O)(=O)c2cc(C(C)(C)C)ccc2OCCOCCOCCOc2ccc(C(C)(C)C)cc2S(=O)(=O)Nc2ccc(C)cc2)cc1	> 100 µM
O=C([O-])c1ccc2c(c1)-c1nc-2nc2[n-]c(nc3nc(nc4[n-]c(n1)c1ccc(C(=O)[O-])cc41)-c1cc(C(=O)[O-])ccc1-3)c1ccc(C(=O)[O-])cc21.[Fe+2]	> 50 µM
Cc1cc(Cc2cc(C)c(NC(=O)C(=O)C3C(=O)NC(=S)NC3=O)c(C(C)C)c2)cc(C(C)C)c1NC(=O)C(=O)C1C(=O)NC(=S)NC1=O	> 100 µM

## Task What TGI value was documented for this compound, O=[N+]([O-])c1ccc(Cl)cc1C1ON=C(c2ccccc2)N1C12CC3CC(CC(C3)C1)C2 (centres undefined) ?
## Result > 100 µM

Data provenance is PubChem BioAssay (NCI).
